Reported EC50 values for the following compounds.
# Tested on: HCV replication
# ASSAY_REMARKS: Replicon Assay (Huh-lucubineo-ET cells, luciferase readout)
# Assay type: cell-based
# ASSAY_SETUP: Hepatitis C virus; ET (Huh-lucubineo-ET) HCV replicon cell line; luciferase activity 48-72 hours after compound addition; 6 dilutions

ITEM_SMILES	EC50
COc1ccc(-c2ccc(Cn3cc4nc(-c5cccc(F)c5F)nc-4cn3)nn2)cc1	7.4 µM
Fc1cccc(-c2nc3cnn(Cc4ccc(-c5ccc(OC(F)(F)F)cc5)nc4)cc-3n2)c1F	≥ 50 µM
Fc1cccc(-c2nc3cnn(Cc4ccc(Oc5ccccn5)cc4)cc-3n2)c1F	≥ 50 µM
COc1ccc(-c2ccc(Cn3cc4nc(-c5cccc(F)c5F)nc-4cn3)cc2)c(C(F)(F)F)c1	0.021 µM
O=S(=O)(c1ccc(Cn2cc3nc(-c4cccc(F)c4F)nc-3cn2)cc1)N1CCOCC1	≥ 50 µM
CCCOc1ccc(-c2ccc(Cn3cc4nc(-c5cccc(F)c5F)nc-4cn3)cn2)c(C)c1	1.21 µM
Nc1ccc(-c2ccc(Cn3cc4nc(-c5cccc(F)c5F)nc-4cn3)cn2)c(C(F)(F)F)c1	≥ 50 µM
Fc1cccc(-c2nc3cnn(Cc4cccc(OC(F)(F)F)c4)cc-3n2)c1F	≥ 50 µM
